The measured values listed here are drawn from patent US12686690B2.

target or test system: hOX2R (Homo sapiens, UniProt O43614)
Construct: expressed in transfected cells; host or cells: CHO cells (G418 selection)
Sequence (O43614 whole entry): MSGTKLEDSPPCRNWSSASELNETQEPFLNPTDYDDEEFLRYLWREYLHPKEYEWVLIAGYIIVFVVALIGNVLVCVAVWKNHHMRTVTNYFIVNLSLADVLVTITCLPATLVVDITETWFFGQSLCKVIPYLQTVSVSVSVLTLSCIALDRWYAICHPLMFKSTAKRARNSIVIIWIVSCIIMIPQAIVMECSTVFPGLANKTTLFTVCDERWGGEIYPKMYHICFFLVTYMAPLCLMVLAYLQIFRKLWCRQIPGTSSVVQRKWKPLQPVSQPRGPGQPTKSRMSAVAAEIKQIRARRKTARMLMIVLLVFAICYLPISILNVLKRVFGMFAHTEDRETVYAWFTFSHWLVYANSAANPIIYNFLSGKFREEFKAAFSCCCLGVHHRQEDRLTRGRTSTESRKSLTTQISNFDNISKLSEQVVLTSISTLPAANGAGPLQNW
test summary: hOX2R IPone assay (orexin receptor agonism)
Format: cell-based
run conditions: maximal activation, IPone readout
Listing: hOX2R_Ipone max %act of selected molecules
Dear colleague, please return just the value in %, with no unit written.

Field: example entries. Status: answers known.
CCN1C(=O)N[C@@H](CCC(F)(F)F)COCCCOc2nc(cn3ncnc23)-c2ccnc(c2F)[C@H]1C (single isomer, unassigned) [Example 175] : 93.8
C[C@@H]1c2cc(ccn2)-c2cn3ccnc3c(n2)OCCCCC[C@H](CCC(F)(F)F)NC(=O)N1C [Example 158] : 102

What hOX2R_Ipone max %act appears in the records for this molecule with hOX2R (Homo sapiens, UniProt O43614)? CCN1C(=O)NCCN2CCCC(C2)Oc2nc(cn3ccnc23)-c2cccc(c2)[C@H]1C (mixture of isomers) [Example 5] 93.82

What hOX2R_Ipone max %act appears in the records for this molecule with hOX2R (Homo sapiens, UniProt O43614)? CCN1C(=O)NC(CCC(C)(C)F)CCCCCOc2nc(cn3ccnc23)-c2cc(ncc2OC)[C@H]1C (single isomer, unassigned) [Example 71B] 101.6

What hOX2R_Ipone max %act appears in the records for this molecule with hOX2R (Homo sapiens, UniProt O43614)? CCN1C(=O)N[C@@H](CCC(F)(F)F)CCCCCOc2nc(cc3ccnn23)-c2cc(ncc2OC)C1C (single isomer, unassigned) [Example 88B] 102.3

What hOX2R_Ipone max %act appears in the records for this molecule with hOX2R (Homo sapiens, UniProt O43614)? CCN1C(=O)NC(COCC(F)F)CCCCCOc2nc(cn3ccnc23)-c2cc(ncc2OC)[C@H]1C (mixture of isomers) [Example 190] 101.7
